From: ChEMBL document CHEMBL1201862

Test system: HOP-92
Assay: NCI tumour cell line growth inhibition, 48 h
Activity calls are given as the source filed them. Cut-off read from the data, not from the text of the source: active = GI50 up to about 1.1 µM and inactive = higher.
Respond using exactly one of the listed classes: active, inactive

Please let me know the test result on file for COC(=O)NC1C(C)OC(OC2C/C=C(/C)C3C=CC4C(OC5CC(OC6CCC(OC7CC(O)C(OC8CCC(O)C(C)O8)C(C)O7)C(C)O6)C(OC(C)=O)C(C)O5)C(C)CC(C)C4C3(C)/C(O)=C3/C(=O)OC4(CC(C=O)=CC(O)C4/C=C\2C)C3=O)CC1(C)[N+](=O)[O-] (centres undefined) .
active

Query: recorded result category for C[C@H](CCC1=NCCN1)[C@H]1CC[C@H]2[C@@H]3CC[C@@H]4C[C@H](O)CC[C@]4(C)[C@H]3CC[C@]12C in this test
inactive

Assay result, entry O=C(O)CN1C(=O)OC(c2ccccc2)C1=O (centres undefined) — outcome?
inactive

Just curious, what result did CC(=O)OC1CC2c3cccc4c3C(CC2N(C)C1=O)CN4C(=O)c1ccccc1 (centres undefined) get here?
inactive

Fill in: this test's call for COc1ccc(C2CC(c3ccc4ccccc4c3O)=NN2)cc1OC (centres undefined) is ___
inactive

Just curious, what result did Cc1cc2c(cc1-c1cc3c(cc1C)C(C(C)C)=C(O)C(=O)/C3=C\Nc1c3ccccc3nc3ccccc13)/C(=C/Nc1c3ccccc3nc3ccccc13)C(=O)C(O)=C2C(C)C get here?
inactive

Any idea what this test logged for CN(C)C=C1C(=O)c2c(Br)sc(Br)c2C1=O ?
inactive

Hi, sorry to bother you, what did the test record for Cc1ccc(NC(=O)C(=O)C2C(=O)NC(=O)NC2=O)cc1C ?
inactive

GET /call?item= Nc1nc(Nc2ccccc2)sc1C(=O)c1c[nH]c2ccccc12 returns the recorded outcome of this test.
inactive

Hello, I am checking results. What call was entered for C/C(=N/NC(=O)c1ccccc1O)c1ccc(/C(C)=N\NC(=O)c2ccccc2O)c2nc3cc(C)c(C)cc3nc12 ?
inactive

Could you please tell me the result logged for CCc1cccc(CC)c1NC(=O)CC1SC(N)=NC1=O (centres undefined) in this assay?
inactive

Tell me the assay call for Cc1ccc([N+](=O)[O-])cc1S(=O)(=O)Nc1ccc(C2=NN(c3ccc([N+](=O)[O-])cc3[N+](=O)[O-])C(c3cccs3)C2)cc1 (centres undefined) please.
inactive

For O=C(NC(=S)Nc1ccc2c(c1)Sc1ccccc1O2)c1ccc([N+](=O)[O-])cc1 , which call appears in the assay record?
inactive

Which outcome was entered for the molecule c1ccc(C2C3=C(Nc4ncnn42)c2ccccc2C3)cc1 (centres undefined) in this test?
inactive

GET /call?item= O=C(O)CN1CCNCCN(CC(=O)O)CCNCC1 returns the recorded outcome of this test.
inactive

Assay result, entry CCCCCC/C=C\CCCCCCCCCC1=CC(=O)C=C(OC)C1=O [IRISQUINONE A] — outcome?
inactive

Any idea what this test logged for O=C(O)CSc1nnc(COc2ccc(Cl)cc2)n1-c1ccccc1 ?
inactive

Answer briefly: the call reported for Cn1c(-c2cccc(N)c2)[n+](C)c2ccccc21 in this assay.
inactive

Dear colleague, could you share the recorded outcome for NC(C(=O)O)C(O)c1c[nH]cn1 (centres undefined) when you have a moment?
inactive

Short answer needed: outcome of this test for CC1(C)C[C@H]2C=C(C=O)[C@]34C[C@]3(C(=O)OC4O)[C@H]2C1 (some centres undefined) ?
inactive

Could you kindly confirm the outcome this assay logged for O=C(CSCC(=O)N/N=C\c1cccc([N+](=O)[O-])c1)N/N=C\c1cccc([N+](=O)[O-])c1 ?
inactive

What did the test return for O=C(/C(=C/c1ccc(O)cc1)c1ccccc1)c1ccccc1 ?
inactive

Which outcome was assigned to O=C(NCCCN1CCN(CCCNC(=O)c2cccc3ccccc23)CC1)c1cccc2ccccc12 in this test?
active

Tell me the assay call for COc1nc(NC2OCC(OC(C)=O)C(OC(C)=O)C2OC(C)=O)c(/N=C\C=N\c2c(NC3OCC(OC(C)=O)C(OC(C)=O)C3OC(C)=O)nc(OC)n(C)c2=O)c(=O)n1C (centres undefined) please.
inactive

Recorded test outcome, item COc1cc2c3c(cc(Cl)nc3c1OC)C(O)(CC(C)=O)C(=O)N2 (centres undefined)
inactive

Test call, this molecule: O=S(=O)(c1ccccc1)N1CN2CN(C1)CN(S(=O)(=O)c1ccccc1)C2
inactive

Hi team, can someone confirm the assay call for C=C1CC(c2ccc(O)c(OC)c2)Oc2c(OC)cccc21 (centres undefined) ?
inactive

Record request — test call for COC(=O)c1ccc2c(c1)C(NC(C)=O)CCc1cc(OC)c(OC)c(OC)c1-2 (centres undefined)
active

Per the records of this test, what outcome belongs to O=C(c1ccccc1)c1ccc2[nH]c(-c3c(Cl)c(Cl)c(Cl)c(Cl)c3-c3nnc(-c4ccccc4)o3)nc2c1 ?
inactive

Tell me the assay call for CCOC(=O)CC1=N/C(=N/c2cc(Cl)ccc2Cl)SC1 please.
inactive

Recorded call for CC(=O)OC1CC(n2cc(F)c(=O)[nH]c2=O)OC1CO (centres undefined) ?
inactive

Recorded test outcome, item C/C(=N\NC(=N)N)C(CN(C)C)C(c1ccccc1)c1c(O)c2ccccc2oc1=O (centres undefined)
inactive

Each molecule tested received a call. Report the one for COc1ccc(Nc2nc3ccccc3nc2-c2cccs2)cc1 .
inactive

Assay result, entry CC1=Nc2nc3ccccc3n2C(C)(C)C1 — outcome?
inactive

For this molecule, state the assay outcome: CN(C)CCN(C)c1ccc2c(=O)n(CCN(C)C)c(=O)n3c4ccccc4c(=O)c1c23
active

Kindly provide the recorded test outcome for the following molecule: CCc1ccc(/N=C\c2cc(OC)c(OC)c(OC)c2)cc1
inactive

How did this test come out for CSC(=S)NN=C1CCCC1.CSC(=S)NN=C1CCCC1.[Zn+2] ?
active

Which result was noted for this molecule in the test: C=CCOCC1C2CCC3(OCCO3)C21 (centres undefined)
inactive

Per the records of this test, what outcome belongs to CC(=O)/C=C/c1ccc(C)cc1 ?
inactive
